ASSAYED TARGET: T1, murine pro-myostatin (mouse, UniProt O08689 25-376, biotinylated (in the SPR assay))
T1 construct: also called proGDF8 (mouse); mouse pro-myostatin
EXPERIMENT DESCRIPTION: SPR Biacore 8K, biotin-antigen captured
List of koff values.
Number only, in s⁻¹; omit the unit.

| BINDER | koff / s⁻¹ |
| --- | --- |
| Ab121 (antibody, human IgG4 S228P, kappa, V domains shown) VH: QVTLRESGPALVKPTQTLTLTCTVSGFSFSTSGMVVNWIRQPPGKALEWLAMIDWDADNIVYNSALKSRLTISKDTSKNQVVLTMTNMDPVDTATYYCAKDTGSGWFDAFDIWGQGTMVTVSS VL: DIVMTQSPDSLAVSLGERATINCKSSQSVLYSSTNQNFLAWYQQKPGQPPKLLIYQASTLQNGVPDRFSGSGSGTDFTLTISSLQAEDVAVYYCQQYLTTPYTFGGGTKVEIKR | 0.000608 |
| Ab141 (antibody, human IgG4 S228P, kappa, V domains shown) VH: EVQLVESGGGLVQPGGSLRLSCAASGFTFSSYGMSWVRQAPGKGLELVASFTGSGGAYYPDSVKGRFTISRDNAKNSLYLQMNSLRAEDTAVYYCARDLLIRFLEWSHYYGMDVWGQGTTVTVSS VL: DIVMTQSPLSLPVTPGEPASISCRSSQSLLHSSGHNFLHWYLQKPGQSPQLLIYEVSNRVSGVPDRFSGSGSGTDFTLKISRVEAEDVGVYYCMQQTQYPGTFGGGTKVEIKR | 0.000156 |

Field: next binder
According to the records, this binder Ab128 (antibody, human IgG4 S228P, kappa, V domains shown) VH: EVQLVESGGGLVQPGGSLRLSCTASGFTLSSYSMDWVRQAPGKGLEWVSYITGSGDTTYYADSVKGRFTISRDNAKNTLYLQMNSLRAEDTAVYYCARGFGWISGWAEDYFDYWGQGTLVTVSS VL: DIQMTQSPSSLSASVGDRVTITCQASQSVYSYLNWYQQKPGKAPKLLIYGASRLEGGVPSRFSGSGSGTDFTFTISSLQPEDIATYYCQQHSTDQRTFGGGTKVEIKR displays koff of 0.000655
